Measured viability at 500 molar ratio accompanies every entry in the list below.
test-method-notes: Cytotoxicity against human Raji cells assessed as cell viability at 500 molar ratio
Format: cell-based
experimental-conditions: read-out: Activity
Dear colleague, please return just the value in %, with no unit written.

Consider the worked cases shown below.
| molecule | viability at 500 molar ratio (%) |
| --- | --- |
| O=C1c2ccccc2C(=O)c2cnccc21 | 10 |
| O=C1c2ccc(O)c(O)c2C(=O)c2c(O)ccc(O)c21 [QUINALIZARIN] | 60 |

Next item in the queue.
Dear colleague, please send me the reported viability at 500 molar ratio for `Cc1ccnc2c1C(=O)c1cccc(O)c1C2=O` when you can.
60

All values here come from ChEMBL document CHEMBL1147306.
